measured-target: SARS-CoV-2 spike protein receptor binding domain (isolated RBD) (SARS-CoV-2, UniProt P0DTC2 319-541)
kon overview
Field: numeric (M⁻¹ s⁻¹). Do not append units.

// known answers, use as guide
IMPI-042 (antibody, V domains shown) VH: EVQLVESGGGLIQPGGSLRLSCAASGLTVSSNYMSWVRQAPGKGLEWVSIIYSGGSTYYADSVKGRFTISRDNSKNTLYLQMNSLRAEDTAVYYCARLGGYYYYGMDVWGQGTTVTVSS VL: DIQMTQSPSSLSASVGERVTITCQASQDIRNYLNWYQKKPGKAPKLLIYDSSNLETGVPSRFSGGGSGTDFTFTISSLQPEDIATYYCQQYDNLPITFGQGTRLEIK: 536000
IMPI-033 (antibody, V domains shown) VH: QVQLQESGPGLVKPSQTLSLTCTVSGGSISSYGYYWSWIRQHPGKGLEWIGYIYYSGSTYYNPSLKSRVTMSVDTSKNQLSLRLNSVSAADTAVYYCARDFGGNSNYFDYWGQGTLVTVSS VL: AIQLTQSPSSLSASVGDRVTITCRASQGISSALAWYQQKPGKAPNLLIYDASSLESGVPSRFSGSGSGTDFTLTISSLQPEDFATYYCQQFNSSPLTFGGGTKVEIK: 2.2e+06

kon recorded for this binder, IMPI-027 (antibody, V domains shown) VH: QVQLQESGPGLVKPSQTLSLTCTVSGGSISSYGYYWNWIRQHPGKGLEWIGYIYYSGSTYYNPSLKSRVTISVDTSKNQLSLRLNSVSAADTAVYYCARDFGGNSNYFDYWGQGTLVTVSS VL: AIQLTQSPSSLSASVGDRVTITCRTSQGISSALAWYQQKPGKAPKLLIYDASSLESGVPSRFSGSGSGTDFTLTISSLQPEDFATYYCQQFNSYPLTFGGGTKVEIK , is 6.48e+09

Quick note, kon for IMPI-059 (antibody, V domains shown) VH: EVQLVESGGGLIQPGGSLRLSCAASGFTVSSIYMSWVRQAPGKGLEWVSIIYSRGSTDYADSVKGRFTISRDISKNTLYLQMNSLRAEDTAVYYCARDGTMVRGVHAFDIWGQGTMVTVSS VL: DIQMTQSPPSLSASIGDRVTITCQASQDISNYLNWYQQKPGKAPKLLIYDASNLETGVPSRFSGSGSGTDFTLTISNLQPEDIVTYYCQQYDNLPSSFGQGTKLEIK landed at 6.59e+06

The reported kon of the binder IMPI-047 (antibody, V domains shown) VH: EVQLVESGGGLIQPGGSLRLSCAASGFTVSSNYMNWVRQAPGKGLEWVSVIYSGGSTYYADSVKGRFTISRDNSKNTLYLQMNSLRTEDTAVYYCARDLVAYGMDVWGQGTTVTVSS VL: DIQLTQSPSFLSASVGDRVTITCWASQGISSYLAWYQQKPGKAPKVLIYAASTLQSGVPSRFSGSGSGTEFTLTISSLQPEDFATYYCQLLNSNPLTFGGGTKVEIK was 368000
